Data provenance: patent US8324258B2

Biological target: F1F0-ATPase (Bos taurus)
Assay: Inhibition of ATP synthesis by the F1F0-ATPase
Format: biochemical
Settings: IC40: concentration for 40% inhibition
measurement.type: ATP Synthesis (IC40 μM)

-- ask What does the data say about its ATP Synthesis (IC40 μM)? Entry: O=C(N=C(NCCc1c[nH]cn1)Nc1ccc(-c2ccccc2)cc1)c1ccc(C(F)(F)F)cc1
-- reply >10 µM

-- ask Here is the next molecule: O=C(N=C(NCCc1c[nH]cn1)Nc1ccc(-c2ccccc2)cc1)c1cccc([N+](=O)[O-])c1
-- reply >10 µM

-- ask Here is the next molecule: Cc1ccccc1C(=O)N=C(NCCc1c[nH]cn1)Nc1ccccc1-c1ccccc1
-- reply >20 µM

-- ask Here is the next molecule: O=C(N=C(NCCc1c[nH]cn1)Nc1ccc(-c2ccccc2)cc1)c1ccc(Cl)cc1
-- reply >10 µM

-- ask Here is the next molecule: Cc1ccccc1NC(=NC(=O)c1cccc(Cl)c1)NCCc1c[nH]cn1
-- reply >10 µM

-- ask Here is the next molecule: CCc1ccc(NC(=NC(=O)c2cccc(Cl)c2)NCCc2c[nH]cn2)cc1
-- reply >10 µM

-- ask Here is the next molecule: O=C(N=C(NCCc1c[nH]cn1)Nc1ccc(-c2ccccc2)cc1)c1cccc(F)c1
-- reply >10 µM

-- ask Here is the next molecule: O=C(N=C(NCCc1c[nH]cn1)Nc1ccc(-c2ccccc2)cc1)c1ccc(Br)cc1
-- reply >10 µM

-- ask Here is the next molecule: O=C(/N=C(/NCCc1nc[nH]n1)Nc1ccc(-c2ccccc2)cc1)c1cccc(Cl)c1
-- reply <10 µM

-- ask Here is the next molecule: Cc1ccc(C(=O)N=C(NCCc2c[nH]cn2)Nc2cccc(-c3ccccc3)c2)cc1
-- reply <10 µM

-- ask Here is the next molecule: COc1ccc(NC(=NC(=O)c2cccc(Cl)c2)NCCc2c[nH]cn2)cc1
-- reply >10 µM

-- ask Here is the next molecule: O=C(N=C(NCCc1c[nH]cn1)Nc1cccc(Br)c1)c1cccc(Cl)c1
-- reply <10 µM

-- ask Here is the next molecule: O=C(N=C(NCCc1c[nH]cn1)Nc1cccc(-c2ccccc2)c1)c1ccc(C(F)(F)F)cc1
-- reply <10 µM

-- ask Here is the next molecule: O=C(N=C(NCCc1c[nH]cn1)Nc1ccc(-c2ccccc2)cc1)c1ccc(Cl)c(Cl)c1
-- reply <10 µM

-- ask Here is the next molecule: O=C(/N=C(/NCc1cccc2[nH]ccc12)Nc1ccc(-c2ccccc2)cc1)c1cccc(Cl)c1
-- reply >20 µM

-- ask Here is the next molecule: CCc1cccc(NC(=NC(=O)c2cccc(Cl)c2)NCCc2c[nH]cn2)c1
-- reply <10 µM

-- ask Here is the next molecule: O=C(/N=C(/NCCc1c[nH]cn1)Nc1ccc2[nH]ccc2c1)c1cccc(Cl)c1
-- reply >10 µM

-- ask Here is the next molecule: CCc1ccccc1NC(=NC(=O)c1cccc(Cl)c1)NCCc1c[nH]cn1
-- reply >10 µM

-- ask Here is the next molecule: O=C(N=C(NCCc1c[nH]cn1)Nc1ccccc1Cl)c1cccc(Cl)c1
-- reply >10 µM

-- ask Here is the next molecule: O=C(N=C(NCCc1c[nH]cn1)Nc1ccccc1C(F)(F)F)c1cccc(Cl)c1
-- reply >20 µM

-- ask Here is the next molecule: O=C(/N=C(/NCCn1ccnc1)Nc1ccc(-c2ccccc2)cc1)c1cccc(Cl)c1
-- reply <10 µM

-- ask Here is the next molecule: O=C(N=C(NCCc1c[nH]cn1)Nc1cccc(-c2ccccc2)c1)c1ccc(Cl)cc1
-- reply <10 µM

-- ask Here is the next molecule: Cc1cccc(C(=O)N=C(NCCc2c[nH]cn2)Nc2ccccc2-c2ccccc2)c1
-- reply >10 µM

-- ask Here is the next molecule: O=C(N=C(NCCc1c[nH]cn1)Nc1ccccc1-c1ccccc1)c1cccc(Cl)c1
-- reply >10 µM

-- ask Here is the next molecule: O=C(N=C(NCCc1c[nH]cn1)Nc1ccc(Cl)cc1)c1cccc(Cl)c1
-- reply >10 µM

-- ask Here is the next molecule: O=C(N=C(NCCc1c[nH]cn1)Nc1ccccc1F)c1cccc(Cl)c1
-- reply >20 µM

-- ask Here is the next molecule: O=C(N=C(NCCc1c[nH]cn1)Nc1cccc(-c2ccccc2)c1)c1cccc(F)c1
-- reply <10 µM

----------
Molecular target: F1F0-ATPase (Bos taurus, UniProt P13621)
Test: Inhibition of ATP synthesis by the F1F0-ATPase
Assay type: biochemical
Conditions: IC40: concentration for 40% inhibition
Hi there, I'd appreciate the recorded ATP Synthesis (IC40 μM) for every entry that follows.

-- ask What does the data say about its ATP Synthesis (IC40 μM)? Entry: N#Cc1ccc(C(=O)N=C(NCCc2c[nH]cn2)Nc2cccc(-c3ccccc3)c2)cc1
-- reply <10 µM

-- ask Here is the next molecule: O=C(N=C(NCCc1c[nH]cn1)Nc1ccc(-c2ccccc2)cc1)c1cccc(Cl)c1
-- reply <10 µM

-- ask Here is the next molecule: N#Cc1cccc(-c2ccc(NC(=NC(=O)c3cccc(Cl)c3)NCCc3c[nH]cn3)cc2)c1
-- reply <10 µM

-- ask Here is the next molecule: O=C(/N=C(/NCCN1CCNC1=O)Nc1ccc(-c2ccccc2)cc1)c1cccc(Cl)c1
-- reply >20 µM

-- ask Here is the next molecule: O=C(N=C(NCCc1c[nH]cn1)Nc1cccc(Cl)c1)c1cccc(Cl)c1
-- reply >10 µM

-- ask Here is the next molecule: O=C(/N=C(/NCCc1c[nH]cn1)Nc1ccc2cc[nH]c2c1)c1cccc(Cl)c1
-- reply >10 µM

-- ask Here is the next molecule: Cc1ccc(C(=O)N=C(NCCc2c[nH]cn2)Nc2ccccc2-c2ccccc2)cc1
-- reply >10 µM

-- ask Here is the next molecule: O=C(N=C(NCCc1c[nH]cn1)Nc1cccc2ccccc12)c1cccc(Cl)c1
-- reply <10 µM

-- ask Here is the next molecule: O=C(N=C(NCCc1c[nH]cn1)Nc1ccc(-c2ccccc2)cc1)c1ccc([N+](=O)[O-])cc1
-- reply >20 µM

-- ask Here is the next molecule: COc1ccc(-c2ccc(NC(=NC(=O)c3cccc(Cl)c3)NCCc3c[nH]cn3)cc2)cc1
-- reply <10 µM

-- ask Here is the next molecule: C[C@H](Cc1c[nH]cn1)N/C(=N/C(=O)c1cccc(Cl)c1)Nc1ccc(-c2ccccc2)cc1
-- reply <10 µM

-- ask Here is the next molecule: CN(C)S(=O)(=O)c1cccc(NC(=NC(=O)c2cccc(Cl)c2)NCCc2cnc[nH]2)c1
-- reply >20 µM

-- ask Here is the next molecule: Cc1ccc(C(=O)N=C(NCCc2c[nH]cn2)Nc2ccc(-c3ccccc3)cc2)cc1
-- reply >10 µM

-- ask Here is the next molecule: O=C(N=C(NCCc1c[nH]cn1)Nc1ccc(-c2ccc(Cl)cc2)cc1)c1cccc(Cl)c1
-- reply >10 µM

----------
Target: F1F0-ATPase (Bos taurus, UniProt P13621)
Assay: Inhibition of ATP hydrolysis by the F1F0-ATPase
Assay type: biochemical
Settings: IC40: concentration for 40% inhibition
measurement.type: ATP Hydrolysis (IC40 μM)

-- ask What does the data say about its ATP Hydrolysis (IC40 μM)? Entry: Cc1ccc(C(=O)N=C(NCCc2c[nH]cn2)Nc2ccc(-c3ccccc3)cc2)cc1
-- reply >10 µM

-- ask Here is the next compound: Cc1cccc(-c2ccc(NC(=NC(=O)c3cccc(Cl)c3)NCCc3c[nH]cn3)cc2)c1
-- reply >10 µM

-- ask Here is the next compound: O=C(N=C(NCCc1c[nH]cn1)Nc1cccc(-c2ccccc2)c1)c1ccc(Br)cc1
-- reply >10 µM

-- ask Here is the next compound: O=C(/N=C(/NCCc1c[nH]cn1)Nc1ccc2cc[nH]c2c1)c1cccc(Cl)c1
-- reply <10 µM

-- ask Here is the next compound: O=C(N=C(NCCc1c[nH]cn1)Nc1cccc(-c2ccccc2)c1)c1ccc(Cl)cc1
-- reply >10 µM

-- ask Here is the next compound: O=C(/N=C(/NCCc1c[nH]cn1)Nc1cccc2[nH]ccc12)c1cccc(Cl)c1
-- reply >10 µM

-- ask Here is the next compound: O=C(N=C(NCCc1c[nH]cn1)Nc1cccc(Cl)c1)c1cccc(Cl)c1
-- reply >20 µM
